Would you mind telling me the reported IC50 of each entry?
# Tested on: CEM cells HIV-1 protection, formazan growth assay
# TEST SUMMARY: NCI AIDS Antiviral Assay
# TEST CONDITIONS: measured here: growth of uninfected CEM cells

IC50 measured on O=C1N2Cc3c4ccc5c3CN3C(=O)N6Cc7c(ccc(c7CN1C6(c1ccccc1)C23c1ccccc1)OCCOCCOc1cc(Br)c(Br)cc1OCCOCCO4)OCCOCCOc1cc(Br)c(Br)cc1OCCOCCO5 (stereo not given) = > 0.55 µM

IC50 measured on CN1CCOC1(C)c1ccccc1O (stereo not given) = > 200 µM

IC50 measured on CSc1nc2nc(C)c(C)nc2c(=O)[nH]1 = > 1120 µM

IC50 measured on O=C(O)CCC1(CCC(=O)O)CCCCCCCCC(CCC(=O)O)(CCC(=O)O)C(=O)C1=O = > 200 µM

IC50 measured on O/N=C1/C(=C/c2ccc(F)cc2)CCCC1C(NO)c1ccc(F)cc1 (stereo not given) = > 2.88 µM
